Provenance of the data: PubChem BioAssay (EPA / NIEHS)

Test protocol: BSK_SAg_PBMCCytotoxicity: PBMC Cytotoxicity Assessment in the BioMAP Diversity Plus: SAg Assay (AID 2283093);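 further: PBMC viability measured as Alamar Blue reduction fluorescence at 546/580 nm; fitted both ways against DMSO so a hit may be loss or gain of signal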
Measurement context: primary human HUVEC with PBMC
The source made the active and inactive calls. How the source made its calls: active means hit-call score of the fitted dose curve at least 0.9, where 1 is the maximum; inactive means score below 0.9.
Answer with one of the outcomes true for active, false for inactive

Examples with answers:
C[C@]12CC[C@@H]3c4ccc(O)cc4CC[C@H]3[C@@H]1CCC2=O :: false
CCCC(=O)OCCC(C)C :: false
CC1=CC(=O)/C(=C(/C)O)C(=O)O1 :: false
CO[C@H]1/C=C/O[C@@]2(C)Oc3c(C)c(O)c4c(O)c(c(/C=N/N5CCN(C)CC5)c(O)c4c3C2=O)NC(=O)/C(C)=C\C=C\[C@H](C)[C@H](O)[C@@H](C)[C@@H](O)[C@@H](C)[C@H](OC(C)=O)[C@@H]1C :: true

Assay outcome for `O=C(O)Cc1cc(I)c(Oc2ccc(O)c(I)c2)c(I)c1` : what was it?
false

Assay outcome for `Cc1ncc(CO)c(CO)c1O` : what was it?
false

Assay outcome for `O=C(O)c1ccccc1C(=O)OCc1ccccc1` : what was it?
false

Assay outcome for `CCCCCCCCN(C)CCCCCCCC` : what was it?
false

Assay outcome for `Clc1ccccc1C(c1ccccc1)(c1ccccc1)n1ccnc1` : what was it?
true

Assay outcome for `NCc1cccc(C2CCN(C(=O)c3ccc(C#Cc4ccccc4F)o3)CC2)c1` : what was it?
true

Assay outcome for `O=C=NCCCCCCN=C=O` : what was it?
false

Assay outcome for `CC(C)(O)c1ccc(CNC(=O)c2cccnc2Oc2ccc3nonc3c2)cc1` : what was it?
false

Assay outcome for `CCCCCCCCOC(=O)c1cc(O)c(O)c(O)c1` : what was it?
true

====

Test protocol: APR_HepG2_MitoMembPot_24hr: Apredica 24-hour HepG2 Assay for Mitochondrial Membrane Potential (AID 2282911)
Measurement context: imaging, actives raise or lower the signal
Calls of active or inactive are those of the source. The calls were made as follows: active = hit-call score of the fitted dose curve at least 0.9, where 1 is the maximum; inactive = score below 0.9.
Answer with one of the outcomes Yes for active, No for inactive

Examples with answers:
OCCO :: No
CC1(C)NC(=O)N(c2ccc([N+](=O)[O-])c(C(F)(F)F)c2)C1=O :: No
c1ccc2n[nH]nc2c1 :: No
O=C(O)c1ccccc1C(=O)OCc1ccccc1 :: No
CC(C)(c1cc(Br)c(O)c(Br)c1)c1cc(Br)c(O)c(Br)c1 :: Yes
CCO[Si](CCCNC(N)=O)(OCC)OCC :: No
O=CCCCC=O :: No
CCCCCc1ccc(N)cc1 :: No

Assay outcome for `Oc1ccccc1` : what was it?
No

Assay outcome for `Oc1ccc2ccccc2c1` : what was it?
No

Assay outcome for `NCc1cccc(C2CCN(C(=O)c3ccc(C#Cc4ccccc4F)o3)CC2)c1` : what was it?
Yes

Assay outcome for `CCN(CC)C(=O)c1cc(S(=O)(=O)Cc2ccccc2)c(N2CCC(c3ccccc3)CC2)cc1N(CC)CCN(C)C` : what was it?
No

Assay outcome for `CCCC(=O)OCCC(C)C` : what was it?
No

Assay outcome for `c1ccc(C[n+]2cccc3ccccc32)cc1` : what was it?
Yes

====

Test protocol: CCTE_Deisenroth_AIME_384WELL_CTox_Inactive: Cytotoxicity Assessment (CTOX) in CCTE's 384-well Estrogen Receptor Transactivation Assay without AIME metabolic competence (metabolism negative), Deisenroth Lab (AID 2284039);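 further: cell viability via live-cell protease substrate cleaved to fluorescent probe; cells exposed 24 h to medium preincubated 2 h with alginate-water beads without S9; loss of fluorescence signal means loss of viability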
Inconclusive results are not listed. Activity calls are given as the source filed them. How the source made its calls: active means hit-call score of the fitted dose curve at least 0.9, where 1 is the maximum; inconclusive means response in the unintended direction; inactive means score below 0.9.
Answer with one of the outcomes active, inactive

Examples with answers:
OCCO :: inactive
O=C(Nc1ccc(Cl)cc1)Nc1ccc(Cl)c(Cl)c1 :: active
C[C@]12CC[C@@H]3c4ccc(O)cc4CC[C@H]3[C@@H]1CCC2=O :: inactive
CCCOC(=O)c1cc(O)c(O)c(O)c1 :: inactive
CC(O)CC(C)(C)O (stereo not given) :: inactive
CCCCCCCCCCCO :: active

Assay outcome for `c1ccc2n[nH]nc2c1` : what was it?
inactive

Assay outcome for `CCCCCCCCCC(=O)O` : what was it?
inactive

Assay outcome for `c1ccc2ccccc2c1` : what was it?
inactive

Assay outcome for `C[C@]12CC[C@@H]3c4ccc(O)cc4CC[C@H]3[C@@H]1CC[C@H]2O` : what was it?
inactive

====

Read-out: Tissue plasminogen activator (tPA), PLAT (gene 5327)
Test protocol: BSK_BE3C_tPA: BioMAP Diversity Plus: BE3C Assay for Tissue plasminogen activator (tPA) Biomarker Activity (AID 2283041)
Measurement context: primary human bronchial epithelial cells; actives raise or lower the signal
The source made the active and inactive calls. The calls were made as follows: active = hit-call score of the fitted dose curve at least 0.9, where 1 is the maximum; inactive = score below 0.9.
Property label: AC50

Illustrative cases are given below, each with its answer.
CCCCOC(=O)CC(CC(=O)OCCCC)(OC(C)=O)C(=O)OCCCC :: inactive
NCc1cccc(C2CCN(C(=O)c3ccc(C#Cc4ccccc4F)o3)CC2)c1 :: 7.07 µM (active)
CCCC(=O)OCCC(C)C :: inactive
CC(O)CC(C)(C)O (stereo unspecified) :: inactive
Clc1ccccc1C(c1ccccc1)(c1ccccc1)n1ccnc1 :: 5.41 µM (active)
CO[C@H]1/C=C/O[C@@]2(C)Oc3c(C)c(O)c4c(O)c(c(/C=N/N5CCN(C)CC5)c(O)c4c3C2=O)NC(=O)/C(C)=C\C=C\[C@H](C)[C@H](O)[C@@H](C)[C@@H](O)[C@@H](C)[C@H](OC(C)=O)[C@@H]1C :: inactive
Cc1c2ccccc2c(C)c2c1ccc1ccccc12 :: inactive
COc1cccc([C@H](O)C2CCN(CCc3ccc(F)cc3)CC2)c1OC :: inactive

Working through the 2 compounds below one at a time, give AC50 for each.
1. O=C(O)c1ccccc1C(=O)OCc1ccccc1
2. O=c1ccc2ccccc2o1

inactive
inactive

Value lookup for AC50; key = `c1ccc2n[nH]nc2c1`
inactive

====

Test protocol: BSK_LPS_SRB: Viability Assessment in the BioMAP Diversity Plus: LPS Assay (AID 2283079);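 further: total protein by sulforhodamine B absorbance as a cytotoxicity measure; measured one day after compound addition; fitted in both directions against DMSO so loss or gain of signal counts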
Measurement context: primary human HUVEC with PBMC
Procedure: BSK_LPS is a cell-based, multiplexed-readout assay that uses umbilical vein endothelium and peripheral blood mononuclear cells, a human vascular primary cell co-culture, with measurements taken at 24 hours after chemical dosing in a 96-well plate.BSK_LPS_SRB is an assay component measured in the BSK_LPS assay. It measures 0.1% sulforhodamine related to cell death using Sulforhodamine staining technology.Data from the assay component BSK_LPS_SRB was analyzed into 1 assay endpoint. […]
Activity calls are given as the source filed them. How the source made its calls: active means hit-call score of the fitted dose curve at least 0.9, where 1 is the maximum; inactive means score below 0.9.
Answer with one of the outcomes class 1 for active, class 0 for inactive

Examples with answers:
Clc1ccccc1C(c1ccccc1)(c1ccccc1)n1ccnc1 :: class 1
c1ccc2ccccc2c1 :: class 0
CCCC(=O)OCCC(C)C :: class 0

Assay outcome for `CCCCCCCCCC(=O)O` : what was it?
class 0

Assay outcome for `CC(C)(C)c1csc(-c2cc3cc(OCc4ccccc4CC(=O)O)ccc3o2)n1` : what was it?
class 1

Assay outcome for `O=C(O)Cc1cc(I)c(Oc2ccc(O)c(I)c2)c(I)c1` : what was it?
class 0

Assay outcome for `O=C(OCCCCCCOC(=O)c1ccccc1)c1ccccc1` : what was it?
class 0

Assay outcome for `Cc1ncc(CO)c(CO)c1O` : what was it?
class 0

Assay outcome for `O=c1[nH]sc2ccccc12` : what was it?
class 1

Assay outcome for `Cc1ccc2oc(CN(Cc3ccccc3)C(=O)Nc3c(F)cc(F)cc3F)c(-c3ccc(Cl)cc3)c2c1` : what was it?
class 0

Assay outcome for `O=c1ccc2ccccc2o1` : what was it?
class 0

Assay outcome for `CC[C@@H]1C[C@H](N(Cc2cc(C(F)(F)F)cc(C(F)(F)F)c2)C(C)=O)c2cc(C(F)(F)F)ccc2N1C(=O)OC(C)C` : what was it?
class 0

Assay outcome for `O=C(O)Cn1c(=O)n(Cc2ccc(Br)cc2F)c(=O)c2ccc(Cl)cc21` : what was it?
class 0

Assay outcome for `CCCCCCCC[Si](OCC)(OCC)OCC` : what was it?
class 0

Assay outcome for `CCO[Si](CCCNC(N)=O)(OCC)OCC` : what was it?
class 0

Assay outcome for `CO[C@H]1/C=C/O[C@@]2(C)Oc3c(C)c(O)c4c(O)c(c(/C=N/N5CCN(C)CC5)c(O)c4c3C2=O)NC(=O)/C(C)=C\C=C\[C@H](C)[C@H](O)[C@@H](C)[C@@H](O)[C@@H](C)[C@H](OC(C)=O)[C@@H]1C` : what was it?
class 0

Assay outcome for `Clc1cc(Cl)c2c(c1)N=C1CCCCCN1C2` : what was it?
class 0

Assay outcome for `O=C(O)c1ccccc1-n1cc(C(=O)O)c(=O)c2cc(Nc3c(F)cc(F)cc3Cl)c(Cl)cc21` : what was it?
class 0

====

Test protocol: CCTE_Shafer_MEA_acute_AB: CCTE's Alamar Blue Assay for Cytotoxicity in the Neural Acute Assay, Shafer Lab (AID 2284069);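 further: active compounds lower the viability signal compared with DMSO wells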
Records with an inconclusive call do not appear. Activity calls are given as the source filed them. How the source made its calls: active means hit-call score of the fitted dose curve at least 0.9, where 1 is the maximum; inconclusive means response in the unintended direction; inactive means score below 0.9.
Answer with one of the outcomes Yes = active, No = inactive

Examples with answers:
CN(C)c1ccc(C(=C2C=CC(=[N+](C)C)C=C2)c2ccc(N(C)C)cc2)cc1 :: Yes
CCCCCCCCCCCCO :: No
CC(O)CC(C)(C)O (stereo unspecified) :: No

Assay outcome for `C[C@]12CC[C@@H]3c4ccc(O)cc4CC[C@H]3[C@@H]1CC[C@H]2O` : what was it?
No

Assay outcome for `COc1cc(C(=O)NC2CCN(C)CC2)ccc1Nc1ncc2c(n1)N(C1CCCC1)CC(F)(F)C(=O)N2C` : what was it?
No
